tested_target: CDK6/cyclin D3 (Homo sapiens) (UniProt P30281+Q00534)
condition_label: at 1 µM
Description: Millipore: Percentage of residual kinase activity of CDK6 at 1uM relative to control. Control inhibitor: Phosphoric acid* at 0.3uM. Buffer: 8 mM MOPS pH 7.0, 0.2 mM EDTA
Record form. Attribute: residual activity. Fill in for each entry.
One number for each entry, in %.

Would you please look over these solved cases?
Query (compound): C[S+]([O-])c1ccc(-c2nc(-c3ccc(F)cc3)c(-c3ccncc3)[nH]2)cc1 (configuration not stated) ; field requested: residual activity
116

Query (compound): COc1cc(OC)c(/C=C2\C(=O)Nc3ccccc32)c(OC)c1 ; field requested: residual activity
90

Query (compound): O=C1Nc2ccc3ncsc3c2/C1=C/c1c[nH]cn1 ; field requested: residual activity
10

Query (compound): O=C1c2ccccc2-c2nc3nnnn3nc21 ; field requested: residual activity
103

Query (compound): CCn1cnc2c(Nc3cccc(Cl)c3)nc(N[C@@H]3CCCC[C@@H]3N)nc21 ; field requested: residual activity
82

Hi there! I need residual activity for each item below, if you can.
1. O=[N+]([O-])/C=C/c1ccc2c(c1)OCO2
2. O=c1[nH]c2ccccc2n1C1CCN(Cc2ccc(-c3nc4cc5[nH]cnc5cc4nc3-c3ccccc3)cc2)CC1

[99, 105]

* * *

tested_target: Dual specificity tyrosine-phosphorylation-regulated kinase 2 (Homo sapiens) (UniProt Q92630)
Sequence (whole entry): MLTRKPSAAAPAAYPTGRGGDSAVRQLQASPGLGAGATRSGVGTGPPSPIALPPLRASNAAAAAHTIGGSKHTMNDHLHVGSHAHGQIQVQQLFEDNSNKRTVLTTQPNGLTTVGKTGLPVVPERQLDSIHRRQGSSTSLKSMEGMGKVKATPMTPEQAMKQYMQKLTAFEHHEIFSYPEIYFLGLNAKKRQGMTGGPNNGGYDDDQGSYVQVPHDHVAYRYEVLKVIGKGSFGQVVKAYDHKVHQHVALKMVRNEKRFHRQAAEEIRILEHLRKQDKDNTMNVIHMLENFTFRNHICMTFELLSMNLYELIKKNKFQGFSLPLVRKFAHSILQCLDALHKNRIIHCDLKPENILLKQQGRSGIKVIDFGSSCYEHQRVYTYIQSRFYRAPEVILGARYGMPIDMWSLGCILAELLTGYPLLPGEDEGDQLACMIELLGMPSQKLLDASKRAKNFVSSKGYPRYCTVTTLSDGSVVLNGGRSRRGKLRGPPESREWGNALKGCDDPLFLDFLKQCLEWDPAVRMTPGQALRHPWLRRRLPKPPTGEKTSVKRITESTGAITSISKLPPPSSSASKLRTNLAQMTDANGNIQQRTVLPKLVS
condition_label: at 1 µM
assay_metric: residual activity (%)
One number for each entry, in %.

Query (compound): COC(=O)[C@@]1(O)C[C@H]2O[C@]1(C)n1c3ccccc3c3c4c(c5c6ccccc6n2c5c31)C(=O)NC4 ; field requested: residual activity
2

Hi there! I need residual activity for each item below, if you can.
1. CC(C)[C@H](CO)Nc1nc(Nc2cccc(Cl)c2)c2ncn(C(C)C)c2n1
2. O=C1c2ccccc2-c2nc3nnnn3nc21
3. O=C1Nc2ccc3ncsc3c2/C1=C/c1c[nH]cn1
4. O=[N+]([O-])/C=C/c1ccc2c(c1)OCO2
5. O=C1NC(=O)c2c1c1c3ccccc3n3c1c1c2c2ccccc2n1C1CCC3O1
6. c1cc(-c2cnn3cc(-c4ccc(OCCN5CCCCC5)cc4)cnc23)ccn1

1. 99
2. 101
3. 1
4. 101
5. 91
6. 52

Hi there! I need residual activity for each item below, if you can.
1. COc1cc(OC)c(/C=C2\C(=O)Nc3ccccc32)c(OC)c1
2. N/C(=N\[N+](=O)[O-])N/N=C\c1ccc(-c2cccc([N+](=O)[O-])c2)o1
3. C[S+]([O-])c1ccc(-c2nc(-c3ccc(F)cc3)c(-c3ccncc3)[nH]2)cc1 (stereo not given)

1. 102
2. 90
3. 115
